Data provenance is a melting point compilation (Tetko et al.; mined from patent text by program, amines drawn as free bases though some values may be those of a salt).

Quantity measured: melting point

Consider the worked cases shown below.
CCCOc1ncc(NC(C)C(=O)OC)cc1-c1nc2c(CCC)nn(C)c2c(=O)[nH]1 (centres undefined) ... 185 to 187 °C
CC(=O)OCCCCC#Cc1ccc2c3ccc4c5c(ccc(c6cccc1c62)c53)C(=O)N(c1c(C(C)C)cccc1C(C)C)C4=O ... > 300 °C
COC(=O)NN=C1CCc2ccccc21 ... 155 to 156 °C

Turning to the following molecule.
Name the recorded melting point for `CCN(C(=O)c1ccccc1C(=O)c1ccccc1)C(C)(C)CNS(=O)(=O)c1ccc(C)cc1` .
157 to 160 °C

----------
Quick reference for melting point among some molecules

COc1ccc2nc(SCc3nccc(OC)c3OC)[nH]c2n1 ... 157 °C

Name the recorded melting point for `Nc1ncnc2c1c(-c1ccc(Oc3ccccc3)cc1)cn2S(=O)(=O)C1CCCC1` .
188 °C

Name the recorded melting point for `COc1ccc(-c2ccc3cc(CO)ccc3c2)cc1C12CC3CC(CC(C3)C1)C2` .
169 to 171 °C

Name the recorded melting point for `COC(=O)c1ccc2cc(OCc3cccc(COc4ccc5cc(C(=O)OC)ccc5c4)c3)ccc2c1` .
177 to 178 °C

Name the recorded melting point for `CCCCc1nn(-c2ccc(C(F)(F)F)cn2)cc1CCCOc1cc(CC(=O)O)ccc1OCC` .
105 to 106 °C

Name the recorded melting point for `CS(=O)(=O)Nc1cccc(N=C2NCCN2)c1` .
229 to 230 °C

Name the recorded melting point for `Cc1c(C(=O)Nc2ccc(N3CCN(CCO)CC3)c(C#N)c2)cnn1-c1ccc(F)cc1F` .
149 to 151 °C

Name the recorded melting point for `COC(=O)CCc1oc(-n2cnc3ccccc32)nc1-c1ccc(C(F)(F)F)cc1` .
129 to 130 °C

Name the recorded melting point for CCOC(Nc1ccccc1)(OCC)C1(Cl)C=CN=C(C(=O)c2ccc(Cl)cc2)C1 (centres undefined) .
123 to 124 °C

----------
Quick reference for melting point among some compounds

COc1cc2c(cc1OC)CC(=O)N(CCCI)C=C2 ... 132 to 134 °C
O=C(OCC(O)CO)c1cc(F)ccc1Nc1ccnc2c(C(F)(F)F)cccc12 (centres undefined) ... 197 to 198 °C
OC1(c2ccncc2)Cc2ccccc2C2=NCCN21 (centres undefined) ... 162 to 164 °C
Cc1ccccc1-c1ccc(C(=O)N2Cc3ccc(C(=O)NCc4cccc(C(F)(F)F)c4)n3Cc3ccccc32)cc1C ... 171 to 173 °C
CC[C@H](C)[C@H](NC(=O)c1ccc(C)cc1)NC(=S)Nc1cccnc1 ... 102 to 104 °C
CCOC(=O)CCN(c1ccccc1)S(=O)(=O)c1ccc2c(c1)nc(CNc1ccc(C#N)cc1)n2C ... 188 to 191 °C
CCCCOC(=O)NCc1nc(-c2ccc3c(c2)Nc2ccccc2S3)cs1 ... 186 to 188 °C
Nc1sc2c(c1C(=O)c1ccc3ccccc3c1)CCC(Cc1ccc([N+](=O)[O-])cc1)C2 (centres undefined) ... 76 to 78 °C

Turning to the following compound.
Name the recorded melting point for CC1CCOP(C)(=O)C1 (centres undefined) .
78 to 83 °C

----------
Quantity measured: melting point

Consider the worked cases shown below.
O=C(O)c1cncc2cccc([N+](=O)[O-])c12 ... 285 °C
CCCC(CCNC(=O)C(C#N)=Cc1cc(O)c(O)c(OC)c1)NC(=O)C(C#N)=Cc1cc(O)c(O)c(OC)c1 (stereo not given) ... 243 °C
Cc1nc(C)c(Cl)c(NCc2ccc(OCc3ccccc3)c(OCC(F)(F)F)c2)n1 ... 135 to 138 °C
NNC(=S)Nc1ccc2ccccc2c1 ... 174 to 176 °C

Name the recorded melting point for `CCC1(CC)NC(=O)C(CC)(CC)N1OC(C)(C)C#N` .
125 to 130 °C

Name the recorded melting point for `CCc1ccc(-c2nc(COc3ccc(CCCn4ccnc4)cc3)co2)s1` .
57 to 58 °C

Name the recorded melting point for CCc1nsc(NC(=O)C(C)c2ccc3oc(-c4c(F)cccc4Cl)nc3c2)c1Cl (stereo not given) .
178 to 179 °C

Name the recorded melting point for `Cc1ccc(C(=O)Nc2ccc(-n3ccnc3C)c(C(F)(F)F)c2)cc1Nc1nccc(-c2cccnc2)n1` .
154 to 163 °C

Name the recorded melting point for COC(=O)NCC1CC(c2ccccc2)=NO1 (stereo not given) .
102 to 103 °C

Name the recorded melting point for O=C1CC(OC2CCCCO2)C(CC2CCCCC2)N1 (stereo not given) .
110 to 115 °C
